# protocol.details: Biodistribution in BALB/c mice
# Type: in vivo
# measurement.conditions: female, BALB/c, mouse, liver, iv, 30 MBq, total radioactivity; 1 h p.i.; read-out: uptake in liver
Where a SMILES comes first, the peptide text is derived from it. [ ]: non-standard residue; d: D form. The star is where a group is joined. DOTA = O=C(O)CN1CCN(CC(=O)O)CCN(CC(=O)*)CCN(CC(=O)O)CC1; 1Nal = N[C@@H](Cc1cccc2ccccc12)C(=O)O; NMeNle = CCCC[C@H](NC)C(=O)O
readout.kind: tissue uptake at 1 h (%ID/g)
One number for each entry, in %ID/g.

Ask | Give the measured tissue uptake at 1 h of CCCC[C@@H](C(=O)N[C@@H](CC(=O)O)C(=O)N[C@@H](Cc1cccc2ccccc12)C(N)=O)N(C)C(=O)[C@H](Cc1c[nH]c2ccccc12)NC(=O)CNC(=O)[C@H](Cc1ccc(O)cc1)NC(=O)[C@@H]1CCCN1C(=O)[C@@H](CCC(=O)O)NC(=O)CN1CCN(CC(=O)O)CCN(CC(=O)O)CCN(CC(=O)O)CC1 [[^177Lu]Lu-1, metal not drawn] ({DOTA}-[dE]PYGW[NMeNle]D[1Nal]-NH2) .
Reply | 1.26

---

# protocol.details: Biodistribution in BALB/c mice
# Type: in vivo
# measurement.conditions: female, BALB/c, mouse, liver, iv, 30 MBq, total radioactivity; 30 min p.i.; read-out: uptake in liver
# Protocol: Metabolic biodistribution studies were performed in accordance with the ethical standards of the institution and approved by the Austrian Ministry of Science (BMWFW-66.011/0072-V/3b/2019). […] Urine was measured with the low-sensitivity loop of the radiodetector. The remaining samples were analyzed with the high-sensitivity loop due to the lower radioactivity present in blood, liver and kidney homogenate. […]
Where a SMILES comes first, the peptide text is derived from it. [ ]: non-standard residue; d: D form. The star is where a group is joined. DOTA = O=C(O)CN1CCN(CC(=O)O)CCN(CC(=O)*)CCN(CC(=O)O)CC1; 1Nal = N[C@@H](Cc1cccc2ccccc12)C(=O)O; NMeNle = CCCC[C@H](NC)C(=O)O
readout.kind: tissue uptake at 0.5 h (%ID/g)
Numbers only, in %ID/g.

Ask | Give the measured tissue uptake at 0.5 h of CCCC[C@@H](C(=O)N[C@@H](CC(=O)O)C(=O)N[C@@H](Cc1cccc2ccccc12)C(N)=O)N(C)C(=O)[C@H](Cc1c[nH]c2ccccc12)NC(=O)CNC(=O)[C@H](Cc1ccc(O)cc1)NC(=O)[C@@H]1CCCN1C(=O)[C@@H](CCC(=O)O)NC(=O)CN1CCN(CC(=O)O)CCN(CC(=O)O)CCN(CC(=O)O)CC1 [[^177Lu]Lu-1, metal not drawn] ({DOTA}-[dE]PYGW[NMeNle]D[1Nal]-NH2) .
Reply | 2.95

---

# protocol.details: Biodistribution in BALB/c mice
# Format: in vivo
# measurement.conditions: female, BALB/c, mouse, kidneys, iv, 30 MBq, total radioactivity; 30 min p.i.; read-out: uptake in kidneys
# Method: Metabolic biodistribution studies were performed in accordance with the ethical standards of the institution and approved by the Austrian Ministry of Science (BMWFW-66.011/0072-V/3b/2019). […] Urine was measured with the low-sensitivity loop of the radiodetector. The remaining samples were analyzed with the high-sensitivity loop due to the lower radioactivity present in blood, liver and kidney homogenate. […]
Where a SMILES comes first, the peptide text is derived from it. [ ]: non-standard residue; d: D form. The star is where a group is joined. DOTA = O=C(O)CN1CCN(CC(=O)O)CCN(CC(=O)*)CCN(CC(=O)O)CC1; 1Nal = N[C@@H](Cc1cccc2ccccc12)C(=O)O; NMeNle = CCCC[C@H](NC)C(=O)O
readout.kind: tissue uptake at 0.5 h (%ID/g)
Give bare numbers, in %ID/g.

Ask | Give the measured tissue uptake at 0.5 h of CCCC[C@@H](C(=O)N[C@@H](CC(=O)O)C(=O)N[C@@H](Cc1cccc2ccccc12)C(N)=O)N(C)C(=O)[C@H](Cc1c[nH]c2ccccc12)NC(=O)CNC(=O)[C@H](Cc1ccc(O)cc1)NC(=O)[C@@H]1CCCN1C(=O)[C@@H](CCC(=O)O)NC(=O)CN1CCN(CC(=O)O)CCN(CC(=O)O)CCN(CC(=O)O)CC1 [[^177Lu]Lu-1, metal not drawn] ({DOTA}-[dE]PYGW[NMeNle]D[1Nal]-NH2) .
Reply | 10.8
